# Assay explanation: Estimated solubility in solvents at room temperature (stepwise solvent addition)
# Type: physicochemical
# Settings: 20 °C, organic solvent or mixture, thermodynamic from solid; ACN, room temperature (RT, 20±3° C.)
Property measured: solubility

stdin: Note solubility for the compound shown: Cc1cc(-c2ccnc(Nc3cnn(C)c3)n2)ccc1CNC(=O)N1CC(OC(C)C)C1.Cl
stdout: < 1000 µg/mL

---

# Assay explanation: Estimated solubility in solvents at room temperature (stepwise solvent addition)
# Format: physicochemical
# Settings: 20 °C, organic solvent or mixture, thermodynamic from solid; 2-MeTHF, room temperature (RT, 20±3° C.)
Property measured: solubility

stdin: Note solubility for the molecule shown: Cc1cc(-c2ccnc(Nc3cnn(C)c3)n2)ccc1CNC(=O)N1CC(OC(C)C)C1.Cl
stdout: < 1000 µg/mL

These entries and their values trace back to patent US20180282310A1.
